Where these numbers come from: ChEMBL document CHEMBL3885861

- Organism: Rattus norvegicus
- assay_explanation: Open TG-GATES - Regimen: Daily Repeat
- Type: toxicity, organism-based, Sprague-Dawley
- Set-up: regimen Daily Repeat, gender Male, age 6 weeks
- condition_details: in vivo, po, 1000 mg/kg, […], tissue Plasma, route gavage, dose level High, time 14 day
Measured RALB, listed per entry for reference.
Respond with the bare value in g/dL.

- molecule: "COc1ccc2[nH]c([S+]([O-])Cc3ncc(C)c(OC)c3C)nc2c1 (stereo unspecified)"
  numeric_result: 3.6

Now turn to the next molecule.
Problem: Given the molecule "COC1=CC(=O)C[C@@H](C)[C@]12Oc1c(Cl)c(OC)cc(OC)c1C2=O" , what is its reported RALB?
Result: 3.4
